Values compiled from ChEMBL document CHEMBL1148794.

TARGET: Fatty-acid amide hydrolase 1 (Rattus norvegicus)
Sequence (P97612 whole entry): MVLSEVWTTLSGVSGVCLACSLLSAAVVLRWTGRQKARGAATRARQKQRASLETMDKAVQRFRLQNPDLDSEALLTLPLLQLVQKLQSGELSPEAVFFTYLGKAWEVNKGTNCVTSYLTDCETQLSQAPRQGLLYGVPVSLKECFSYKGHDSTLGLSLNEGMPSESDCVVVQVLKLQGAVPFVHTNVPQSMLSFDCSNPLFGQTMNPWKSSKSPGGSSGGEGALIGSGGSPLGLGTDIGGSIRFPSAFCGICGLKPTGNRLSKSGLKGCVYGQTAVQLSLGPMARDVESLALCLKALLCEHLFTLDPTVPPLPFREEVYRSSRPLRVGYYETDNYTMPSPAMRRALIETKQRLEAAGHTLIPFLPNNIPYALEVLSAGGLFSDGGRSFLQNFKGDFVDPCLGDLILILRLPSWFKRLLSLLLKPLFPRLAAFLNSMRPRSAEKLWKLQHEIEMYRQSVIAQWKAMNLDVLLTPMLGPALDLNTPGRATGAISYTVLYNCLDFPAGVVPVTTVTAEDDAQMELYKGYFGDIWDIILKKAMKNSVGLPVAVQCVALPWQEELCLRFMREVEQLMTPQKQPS
PROTOCOL SUMMARY: Inhibition of FAAH in rat cerebellum membranes assessed as [3H]anandamide hydrolysis
pIC50: −log10 of the molar value.
Reported values of pIC50 for individual entries

MOLECULE | TARGET | pIC50
CCCCC/C=C\C/C=C\C/C=C\C/C=C\CCCC(=O)OC[C@H]1CO1 | Fatty-acid amide hydrolase 1 (Rattus norvegicus) | 5.22
CCCCC/C=C\C/C=C\C/C=C\C/C=C\CCCC(=O)NC[C@@H]1CCCO1 | Fatty-acid amide hydrolase 1 (Rattus norvegicus) | 4.16
CCCCC/C=C\C/C=C\C/C=C\C/C=C\CCCC(=O)OCCC1OCC(C)(C)CO1 | Fatty-acid amide hydrolase 1 (Rattus norvegicus) | 4.68
CCCCC/C=C\C/C=C\C/C=C\C/C=C\CCCC(=O)OC[C@@H]1CO1 | Fatty-acid amide hydrolase 1 (Rattus norvegicus) | 4.92
O=C(OCC1CCCCO1)c1ccccc1 (racemic) | Fatty-acid amide hydrolase 1 (Rattus norvegicus) | 4.28
CCCCC/C=C\C/C=C\C/C=C\C/C=C\CCCC(=O)OCC1COC(C)(C)O1 (racemic) | Fatty-acid amide hydrolase 1 (Rattus norvegicus) | 4.01
CCCCC/C=C\C/C=C\C/C=C\C/C=C\CCCC(=O)OCc1ccc2c(c1)OCO2 | Fatty-acid amide hydrolase 1 (Rattus norvegicus) | 4.04
CCCCCCCC/C=C\CCCCCCCC(=O)OCC1CO1 (racemic) | Fatty-acid amide hydrolase 1 (Rattus norvegicus) | 4.96

---

TARGET: UniProt:Q8R431
Sequence (Q8R431 whole entry): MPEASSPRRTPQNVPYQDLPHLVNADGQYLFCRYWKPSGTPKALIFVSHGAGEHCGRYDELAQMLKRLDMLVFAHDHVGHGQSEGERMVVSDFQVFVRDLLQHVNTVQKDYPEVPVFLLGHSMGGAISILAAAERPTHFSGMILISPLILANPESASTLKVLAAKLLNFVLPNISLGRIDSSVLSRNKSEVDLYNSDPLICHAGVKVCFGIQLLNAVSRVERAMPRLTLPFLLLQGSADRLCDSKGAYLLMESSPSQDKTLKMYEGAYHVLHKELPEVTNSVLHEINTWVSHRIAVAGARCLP
PROTOCOL SUMMARY: Inhibition of MGL in rat cerebellum cytosolic fractions assessed as [3H]2-oleoylglycerol hydrolysis
Type: tissue-based
Reported values of pI50 (-log I50, M) for individual entries
ENDPOINT NAME: pI50 (-log I50, M)

COMPOUND | ENDPOINT NAME | RESULT
CCCCCC/C=C\CCCCCCCC(=O)OCC1CCCCO1 (racemic) | pI50 (-log I50, M) | < 4
O=C(OCC1CCCCO1)c1cccc(-c2ccccc2)c1 (racemic) | pI50 (-log I50, M) | < 4
CCCCC/C=C\C/C=C\C/C=C\C/C=C\CCCC(=O)OCC1CCCO1 (stereo unspecified) | pI50 (-log I50, M) | 4.67
CC/C=C\C/C=C\C/C=C\CCCCCCCC(=O)OCC1CO1 (racemic) | pI50 (-log I50, M) | 4.97
CCCCC/C=C\C/C=C\C/C=C\C/C=C\CCCC(=O)OC[C@H]1COC(C)(C)O1 | pI50 (-log I50, M) | 4.22
O=C(OCC1CCCCO1)c1ccccc1-c1ccccc1 (racemic) | pI50 (-log I50, M) | < 4
O=C(OCC1CO1)c1ccccc1 (racemic) | pI50 (-log I50, M) | < 4
CCCCC/C=C\C/C=C\C/C=C\C/C=C\CCCC(=O)OCC1CCOC1 (stereo unspecified) | pI50 (-log I50, M) | 4.37
CCCCC/C=C\C/C=C\C/C=C\C/C=C\CCCC(=O)OC[C@H]1CO1 | pI50 (-log I50, M) | 5.2
O=C(OCC1CO1)c1ccccc1-c1ccccc1 (racemic) | pI50 (-log I50, M) | < 4
CCCCC/C=C\C/C=C\CCCCCCCC(=O)OCC1CCCCO1 (racemic) | pI50 (-log I50, M) | 4.1
